# Test system: SF-268 CNS
# TEST DETAILS: NCI-60 one-dose screen, 48 h (100 = growth as untreated, 0 = no growth, -100 = all killed)
# EXPERIMENTAL SETUP: 10 µM unless noted
About 83,000 compounds went through this panel and 20% of them were active in at least one assay; those are over-represented in the sample as a whole.
Label scheme for growth: bucket A (below 40%), bucket B (40% to below 60%), bucket C (60% or more)

| COMPOUND | CLASS NAME |
| --- | --- |
| O=C(O)c1cn(C2CC2)c2cc(N3CCN(Cc4ccc5ccccc5c4O)CC3)c(F)cc2c1=O | bucket B |
| COC(=O)/C=C1/SC(=Nc2ccc(C(F)(F)F)cc2)N(CCc2c[nH]c3ccc(O)cc23)C1=O | bucket A |
| Clc1cccc(Nc2ncnc3ccc(-c4cnc5[nH]ccc5c4)cc23)c1 | bucket C |
| Cc1c(-c2ccc(O)cc2)n(Cc2ccc(OCCN3CCCCCC3)cc2)c2ccc(O)cc12 | bucket C |
| COC(CC(F)F)c1cn(S(=O)(=O)c2ccc(C)cc2)c2ccccc12 (stereo not given) | bucket B |
| Nc1ncnc2c1N=C(c1ccc(Br)cc1)CC(c1cccc(Nc3ccnc4cc(C(F)(F)F)ccc34)c1)N2 (stereo not given) | bucket B |
| COc1ccc(C(=O)N2c3ccccc3Sc3ccccc32)c(OC)c1 | bucket A |
| N#Cc1c(-c2ccc(Cl)cc2)c(C#N)c2c(C#N)c(N)nn2c1N | bucket C |
| O=C1c2c(c3c4ccccc4[nH]c3c3ccc4ccccc4c23)C(=O)N1CCN1CCOCC1 | bucket B |

###

# Tested on: OVCAR-3 ovarian
# TEST DETAILS: NCI-60 one-dose screen, 48 h
# EXPERIMENTAL SETUP: 10 µM unless noted
About 83,000 compounds went through this panel and 20% of them were active in at least one assay; those are over-represented in the sample as a whole. Active and inactive are the calls of the source. How the source made its calls: active means growth percent below 10; inactive means the rest.
Classes used: T = active, F = inactive

| COMPOUND | CLASS NAME |
| --- | --- |
| CCOC(=O)C1=C(N)Oc2c(sc3c(F)cccc23)C1c1ccc(O)cc1 (stereo not drawn) | F |
| O=C1/C(=C/c2cn(-c3ccccc3)nc2-c2ccccc2)SC(=S)N1C1CCCCC1 | F |
| N#Cc1c(-c2ccc(Cl)cc2)nc(NN2C(=O)c3ccccc3C2=O)nc1N1CCOCC1 | F |
| Cc1ccccc1/C=C/C(=O)c1cccc(OCCCOc2cccc(C(=O)/C=C/c3ccccc3C)c2)c1 | F |
| c1ccc2cc(C[n+]3ccn(CCCCCCCCCCn4cc[n+](Cc5ccc6ccccc6c5)c4)c3)ccc2c1 | T |
| COc1ccc2[nH]c(C(=O)N3CCN(C(=O)OCc4ccc5c(Cl)cc(Cl)c(O)c5n4)CC3)cc2c1 | T |
| CCCCCCCCCCCCCCCCOCCCOP(=O)(O)C1CCCN(O)C1=O (stereo not drawn) | F |
| COc1c(C(=O)Nc2ccc(C)c(Br)c2)ccc2ccccc12 | F |
| C=CCSc1nnc(NC(=O)CCl)s1 | F |
| Cc1nc2sc(C(=O)Nc3cccc(Br)c3)c(N)c2cc1C(O)c1ccccc1 (stereo not drawn) | T |
| Cn1cc(-c2csc(-c3cn(C(=O)OC(C)(C)C)c4ccc(Br)cc34)n2)c2ccnc(Cl)c21 | F |
| CCC(C)N(CCNc1cc(OC)cc2cccnc12)CC(C)C (stereo not drawn) | F |
| COc1ccc2cc1Oc1ccc(cc1)C[C@H]1c3c(cc4c(c3Oc3cc5c(cc3OC)CCN(C)[C@@H]5C2)OCO4)CCN1C | F |
| CC1(C)COB(OCC(C)(C)COB2OCC(C)(C)CO2)OC1 | F |
| O=S(=O)(Nc1cc(F)cc(Cl)c1)c1ccc(-c2cnc(C3CC3)o2)cc1 | F |
| CC1CCN(S(=O)(=O)c2ccc(S(=O)(=O)N3CCCC(c4nc5c(nnn5Cc5cccc(Cl)c5)c(=O)[nH]4)C3)cc2)CC1 (stereo not drawn) | F |
| O=C(O)CCCN1C(=O)/C(=C/c2cn(-c3ccccc3)nc2-c2ccc([N+](=O)[O-])cc2)SC1=S | F |
| OCCn1cc(-c2nc(-c3c[nH]c4ncccc34)cs2)c2cc(F)ccc21 | F |
| CCN(CC)CC(O)COc1c(Br)c(Br)c(Br)c2c1OC(C)(C)C2 (stereo not drawn) | F |
| O=S(=O)(NCCCNc1nccc(-c2c(-c3ccc(F)c(O)c3)nc3occn23)n1)c1ccc(Cl)cc1 | F |
| Clc1ccc2c(NC3CCC(N4CCOCC4)CC3)ccnc2c1 (stereo not drawn) | F |
| Fc1cnccc1C1CC(c2ccc(N3CCNCC3)cc2)=NN1 (stereo not drawn) | F |
| COc1ccc(/C=C/C(=O)c2cccc(OCCCCOc3cccc(C(=O)/C=C/c4ccc(OC)c(OC)c4)c3)c2)cc1OC | F |
| COc1cc2oc(-c3cccc(NC(=O)c4ccccc4)c3)cc(=O)c2c(OC)c1OC | F |
| COc1ccc(\C=N/N=C(N)/C(N)=N\N=C/c2ccc(OC)cc2)cc1 | F |
| CCCn1cc2c(=O)nc3sc(Cc4ccccc4)c(C)n3c2n1 | F |
| COC1/C=C/OC2(C)Oc3c(C)c(O)c4c(O)c(c(/C=N/Nc5ccc([N+](=O)[O-])cc5[N+](=O)[O-])c(O)c4c3C2=O)NC(=O)C(C)=C/C=C/C(C)C(O)C(C)C(O)C(C)C(OC(C)=O)C1C (stereo not drawn) | T |
| NC(=O)C(=O)c1ccccc1NC=O | F |
| COc1ccc(C2=C(Nc3ccc(C(=O)Nc4ccccc4)cc3)C(=O)N(C)C2=O)cc1 | F |
| Nc1ncc(-c2ccc3ncnc(Nc4cccc(Cl)c4)c3c2)cn1 | F |
| CCNCCNc1cc(-c2ccc(C(F)(F)F)cc2)c(C#N)c2nc3ccccc3n12 | T |
| Cn1ccnc1C(=O)/C=C/c1ccc(CC(=O)Nc2cc(C(F)(F)F)cc(C(F)(F)F)c2)cc1 | F |
| COc1ccc(C2=Nc3c(N)nc(N)nc3NC(c3cccc(Nc4ccnc5cc(C(F)(F)F)ccc45)c3)C2)cc1 (stereo not drawn) | F |
| CCOC(=O)C1=C(c2ccccc2)N=C2SC=C(c3ccc(Cl)cc3)N2C1c1ccc(Br)cc1 (stereo not drawn) | F |
| O=C(OC(CO)C(=O)NC12CC3CC(CC(C3)C1)C2)c1ccc(Cl)cc1 (stereo not drawn) | F |
| O=C1/C(=C/c2ccc([N+](=O)[O-])cc2)COc2ccc(O)cc21 | F |
| Nc1cc(C(=O)NC[C@H]2CN(c3ccc(N4CCC(C(=O)O)CC4)cc3)C(=O)O2)ccc1Cl | F |
| CCO/C=N/C1=C(C#N)C(c2ccc(Cl)cc2)c2sc3c(F)cccc3c2O1 (stereo not drawn) | F |

###

# Test system: SN12C renal
# TEST DETAILS: NCI-60 one-dose screen, 48 h
# EXPERIMENTAL SETUP: 10 µM unless noted
Compounds without any hit were thinned out: in the full panel of roughly 83,000, 20% have a hit. Calls of active or inactive are those of the source. Rule for the calls: active = growth percent below 10; inactive = the rest.
Classes used: active, inactive

| COMPOUND | CLASS NAME |
| --- | --- |
| CCOC(=O)n1ccn(C)c1=S | inactive |
| COC(=O)c1cc(N=C2NC(=O)/C(=C/C=C/c3ccccc3)S2)ccc1O | inactive |
| Cn1cc(-c2csc(-c3c[nH]c4ccccc34)n2)c2cnccc21 | inactive |
| COc1cc(C2CC(c3ccc(Nc4nc(Nc5ccc(Cl)cc5)nc(Nc5ccc(Cl)cc5)n4)cc3)=NN2C(C)=O)cc(OC)c1OC (stereo not given) | inactive |
| COc1ccc2c(c1)CC[C@H](O)/C2=C/c1cc(OC)c(OC)c(OC)c1 | inactive |
| COc1ccc(C/C(C)=C(\c2ccc(Cl)cc2)c2ccc(OCCN3CCCCC3)cc2)cc1 | inactive |
| COCCn1cc(-c2nc(-c3cc4cccnc4[nH]3)cs2)c2cc(OC)ccc21 | inactive |
| O=C(/C=C/c1ccccc1)Nc1ncc(Cc2ccccc2Cl)s1 | inactive |
| CC(C)c1ccc(C(=O)Nc2sc3c(c2C(N)=O)CCC(=O)C3)cc1 | active |
| Cn1c(=O)c2nc(/C=C/c3ccccc3)c(=O)[nH]c2n(C)c1=S | inactive |

###

# System: HCC-2998 colon
# TEST DETAILS: NCI-60 one-dose screen, 48 h (100 = growth as untreated, 0 = no growth, -100 = all killed)
# EXPERIMENTAL SETUP: 10 µM unless noted
This is part of a sample that, as a whole, favours compounds with a hit. Of some 83,000 tested, about 20% had one in any assay.
growth under 50% gets y, anything at or over 50% gets n.

| COMPOUND | CLASS NAME |
| --- | --- |
| Cc1sc2nc(NCCc3c[nH]c4ccc(Cl)cc34)[nH]c(=O)c2c1C | y |
| S=c1sc2c(Cl)nc(-c3cccnc3)nc2n1-c1ccccc1 | y |
| c1ccc(Cn2cc3c(c2)-c2oncc2CC3)cc1 | y |
| N#Cc1ccc(O)c(C2=NCC(c3ccccc3)O2)c1 (stereo unspecified) | y |
| N#Cc1c(-c2ccccc2)[nH]c2ncc(-c3ccccc3)n2c1=O | n |
| C/C(Cc1ccc(Cl)cc1)=C(\c1ccc(O)cc1)c1ccc(Cl)cc1 | n |
